System: gastric mucosa of rats
Test: Ulcerogenic activity
Type: in vivo, rat
Settings: oral 0.0942 mmol/kg
Would you please tag the item rule met when its Mean ulcer severity index ± SEM is 0.5 or above, and rule not met when it is below?

These recorded examples may help you get a feel for the data.
compound	assayedSystem	classification
CC1SC(c2c(-c3ccccc3)nc3sccn23)N(c2ccc(Cl)cc2Cl)C1=O (stereo not drawn)	gastric mucosa of rats	rule met
O=C1CSC(c2c(-c3ccccc3)nc3sccn23)N1c1ccc(Br)cc1 (stereo not drawn)	gastric mucosa of rats	rule met
O=C1CSC(c2c(-c3ccccc3)nc3sccn23)N1c1ccc(Cl)cc1 (stereo not drawn)	gastric mucosa of rats	rule met
CC1SC(c2c(-c3ccccc3)nc3sccn23)N(c2ccc(Cl)cc2)C1=O (stereo not drawn)	gastric mucosa of rats	rule not met

Next item in the queue.
Task item: Please check the record CC1SC(c2c(-c3ccccc3)nc3sccn23)N(c2ccc(F)cc2)C1=O (stereo not drawn) and state if its Mean ulcer severity index ± SEM is at or above 0.5.
Reply: rule met
